targetOrTestSystem: Bovine papular stomatitis virus chemokine-binding protein (Bovine papular stomatitis virus)
assayComment: SPR; BPSV-CBP immobilised on a CM5 chip (~500 RU, amine coupling, 10 mM sodium acetate pH 4.5); serial dilutions of mouse chemokines in HBS-EP pH 7.4 flowed in triplicate, 3 min association, 10 min dissociation, 25°C, Biacore X100; global fit, 1:1 binding model
endpointLabel: log10 of kon (log10 of the value in M⁻¹ s⁻¹)
Values below are the log10 of the recorded kon, with M⁻¹ s⁻¹ as the unit.

Recorded results for 5 binders are shown here.
mouse CXCL1 (ligand) APIANELRCQCLQTMAGIHLKNIQSLKVLPSGPHCTQTEVIATLKNGREACLDPEAPLVQKIVQKMLKGVPK :: 5.86
mouse CCL3 (ligand) APYGADTPTACCFSYSRKIPRQFIVDYFETSSLCSQPGVIFLTKRNRQICADSKETWVQEYITDLELNA :: 6.25
mouse XCL1 (ligand) VGTEVLEESSCVNLQTQRLPVQKIKTYIIWEGAMRAVIFVTKRGLKICADPEAKWVKAAIKTVDGRASTRKNMAETVPTGAQRSTSTAITLTG :: 6.00
mouse CXCL2 (ligand) AVVASELRCQCLKTLPRVDFKNIQSLSVTPPGPHCAQTEVIATLKGGQKVCLDPEAPLVQKIIQKILNKGKAN :: 5.89
mouse CXCL4 (ligand) VTSAGPEESDGDLSCVCVKTISSGIHLKHITSLEVIKAGRHCAVPQLIATLKNGRKICLDRQAPLYKKVIKKILES :: 6.00

Next:
Task: Query (binder): mouse CCL19 (ligand) GANDAEDCCLSVTQRPIPGNIVKAFRYLLNEDGCRVPAVVFTTLRGYQLCAPPDQPWVDRIIRRLKKSSAKNKGNSTRRSPVS ; field requested: log10 of kon
Result: 7.14
